Tested on: SN12C renal
run_description: NCI tumour cell line growth inhibition, 48 h
property: TGI

The measured TGI associated with COc1ccc2c(c1)C(=O)c1c-2n(CCCN(C)C)c(=O)c2ccccc12 reads 5.7 µM

O=C(Nc1ccccc1)c1cc(S(=O)(=O)Nc2n[nH]c(=O)n2-c2ccccc2)c(S)cc1Cl yielded TGI of > 100 µM

The molecule identified as COc1cc(C2C(Cl)C(=O)N2NC(=O)Cc2ccccc2)cc(Br)c1O (stereo not drawn) registered its TGI at > 100 µM

Kindly note the recorded TGI for NCCSSCc1ccccc1CSSCCN , which is > 100 µM

Given item COc1ccc2c3c1OC1C(F)C=CC4(O)C(C2)NCCC314 (stereo not drawn) , the value recorded as its TGI is 10.3 µM

TGI for O=C(COc1ccc(Cl)c(Cl)c1)Nc1ccc[n+](Cc2ccc(S(=O)(=O)F)c(Cl)c2)c1 is > 100 µM

Please fill in: TGI reported for C=C[C@@H](C)[C@]1(C(=O)OC)CCCC12OCCO2 = > 100 µM

For this molecule ( CC[C@H](C)[C@H](NC(=O)[C@H]1CCCCN1C)C(=O)N(C)[C@H](C[C@@H](OC(C)=O)c1cccc(C(=O)N[C@@H](Cc2ccccc2)C[C@H](C)C(=O)OC)n1)C(C)C ), measured TGI is > 25 µM

get_value(item= CCOC(=O)c1cnc(N(C)C)nc1SC(=N)N , readout=TGI) returns > 100 µM

Recorded result, COc1ccc(C(=O)C(CN(C)C)CN(C)C)cc1 , TGI: 56.4 µM

Value of measured TGI for the entry Cc1ccc([N+](=O)[O-])cc1S(=O)(=O)Nc1ccc(C2=NN(S(=O)(=O)c3cc([N+](=O)[O-])ccc3C)C(c3ccccc3)C2)cc1 (stereo not drawn) : > 100 µM

What the record says about Oc1c(Br)cc(/C=C/c2ccnc(/C=C/c3cc(Br)c(O)c(Br)c3)c2)cc1Br : TGI is > 100 µM

// TGI lookup, molecule = CC(=O)Nc1ccc2c3c(cc(O)c2c1)N(C(=O)CCCC(=O)N1CC(CCl)c2c1cc(O)c1cc(NC(C)=O)ccc21)CC3CCl (stereo not drawn) , result: > 100 µM

TGI recorded for this molecule, COc1ccc(Cc2c3cc(O)c(=O)cc-3ccn2C)cc1 , is > 100 µM

Entry under test: COc1cc2cc(OC(C)=O)c3cc4c(cc3c2c(OC)c1OC)OCO4 . Its TGI was > 100 µM

For CNC(=O)C(C)NC(=O)C(Cc1ccccc1)NC(=O)c1ccccc1 (stereo not drawn) the molecule record lists TGI as > 100 µM

Given item Cc1nn(CNc2ccccc2C(F)(F)F)c(=S)n1/N=C/c1cccc2cccnc12 , the value recorded as its TGI is 72.7 µM

Note to self: TGI recorded for Cc1ccc(C)c(N2C(=O)C(=O)C(c3nc4ccccc4s3)/C(=N/N)C2=O)c1 (stereo not drawn) was > 100 µM

The molecule listed as CCOC1CN=C(Nc2cccc3ccccc23)S1 (stereo not drawn) has a reported TGI of > 10 µM

Lab note: measured TGI of CCc1nc(N)nc(N)c1-c1ccc(Cl)c([N+](=O)[O-])c1 was > 100 µM

CCOC1OC(COC(=O)C(C)(C)C)C(O)CC1n1cc(C)c(=O)[nH]c1=O (stereo not drawn) yielded TGI of > 100 µM

Briefly, TGI measured for CCOC(=O)Cc1csc(NC(NC(=O)OCC)(C(=O)OCC)C(F)(F)F)n1 (stereo not drawn) : > 100 µM

Just so you know, measured TGI for Cc1nc2sccn2c1C(=O)NN came out at > 100 µM

Reported TGI for CC1=NN(c2nc(N)nc(CN3CCOCC3)n2)C(C)(C)C1 was > 100 µM

The reported TGI of the molecule CCOC(=O)c1nc2cc(C(F)(F)F)ccc2nc1Oc1ccc(C#N)cc1 was > 100 µM

Form field TGI, entry O=C(/C=C\c1ccccc1O)c1ccc(O)cc1O : > 100 µM

TGI reported for this molecule C[n+]1cccc(NC(=O)c2ccc(NC(=O)C34CCC(C(=O)Nc5ccc(C(=O)Nc6ccc[n+](C)c6)cc5)(CC3)CC4)cc2)c1 : 75.1 µM

Recorded result, CCc1cccc(C(C)C)c1NC(=O)C(=O)C1C(=O)Nc2ccccc2S1=O (stereo not drawn) , TGI: > 100 µM

Record summary for COc1ccccc1Nc1nc2c([nH]1)c(=O)n(C)c(=O)n2C : reported TGI = > 10 µM

The measured TGI associated with N#CC12C(=O)N3C(=NC(c4ccco4)NC3c3ccco3)C1(C#N)C(c1ccco1)NC1=C2CCCC1 (stereo not drawn) reads > 100 µM

Briefly, TGI measured for N#CC(c1ccccc1)N(CCCCCCN(C(=O)c1ccccc1)C(C#N)c1ccccc1)C(=O)c1ccccc1 (stereo not drawn) : > 100 µM

Reported TGI of Cc1ccc(CC(Cc2ccccc2C)C(=O)O)c(C(=O)O)c1 (stereo not drawn) : > 100 µM

Item: Cc1ccc2c(=O)cc(-c3sccc3C)[nH]c2n1 | TGI: > 47.2 µM

====

Provide the reported TGI of each item.
Tested on: DLD-1 colon
run_description: NCI tumour cell line growth inhibition, 48 h

Reported TGI ( CNC(=O)OCc1nc(SC)n(C)c1CO ) = > 100 µM

For reference, reported TGI for Cc1ccc(C)c(N2C(=O)C(=O)C(c3nc4ccccc4s3)/C(=N/N)C2=O)c1 (stereo unspecified) stands at > 100 µM

Sure, the documented TGI for CCC[C@H]1O[C@@H]2CC(=O)O[C@@H]2C2=C1C(=O)C=CC2=O is 35.8 µM

Consider CSc1ccc2c(cc1=O)[C@@H](NC(=O)c1cccc([N+](=O)[O-])c1)CCc1cc(O)c(O)c(O)c1-2 . Its measured TGI is > 100 µM

Form field TGI, entry C[C@@H]1C[C@H]2[C@@H]3CCC4=CC(=O)C=C[C@]4(C)[C@@]3(F)[C@@H](O)C[C@]2(C)[C@@]1(O)C(=O)CO : > 100 µM

Short answer for Cc1nc2sccn2c1C(=O)NN : TGI was > 100 µM

====

Test system: NCI-H226 lung
run_description: NCI tumour cell line growth inhibition, 48 h; in the data active = GI50 below about 0.43 µM; inactive = the rest
API: response.call in y = active, n = inactive

Fill in: this test's call for CN[C@H]1CN(c2ccc3c(=O)c(C(=O)O)cn(-c4nccs4)c3n2)C[C@@H]1OC is ___ n

Kindly provide the recorded test outcome for the following compound: O=c1c2c(nc3n1CCS3)[nH]c1cc([N+](=O)[O-])ccc12 n

Fill in: this test's call for C=CN(C(=O)N1CCN(c2cc3c(cc2F)c(=O)c(C(=O)O)cn3C2CC2)CC1)c1nc(-c2ccc(OC)cc2)cs1 is ___ n

Each compound tested received a call. Report the one for Cc1cc2c(C(=O)NC[C@H](C)c3ccccc3)c(O)c(O)cc2c(O)c1-c1c(C)cc2c(C(=O)NC[C@H](C)c3ccccc3)c(O)c(O)cc2c1O . y

====

I'd appreciate it if you could supply TGI values for the items below.
System: SK-MEL-28 melanoma
run_description: NCI tumour cell line growth inhibition, 48 h
# number only, unit µM dropped from output

The reported value for CCN(CC)CCCNc1nccc2c(C)c3c(cc12)c1cnccc1n3C in terms of TGI is 1.47

Per the record, O=C1NC2c3c(I)sc(I)c3C(=O)C2O1 (stereo not given) has TGI of 21.5

Sample CC(C)(C)[Si](OC1CCOC1=O)(c1ccccc1)c1ccccc1 (stereo not given) ; TGI observed: 62.6

Recorded result, Cc1cc(S(=O)(=O)Nc2n[nH]c(-c3ccc(Cl)cc3)n2)c(SSc2cc(Cl)c(C)cc2S(=O)(=O)Nc2n[nH]c(-c3ccc(Cl)cc3)n2)cc1Cl , TGI: 96.4

Recorded result, COc1ccc(C(c2ccccc2)(c2ccc(OC)cc2)N2C(=O)NC3C(CCCCC(=O)NCCCCCCOP(OCCC#N)N(C(C)C)C(C)C)SCC32)cc1 (stereo not given) , TGI: 29

====

System: 786-0 renal
run_description: NCI tumour cell line growth inhibition, 48 h
property: GI50

// GI50 value for Clc1c(Cl)[n+](Cc2ccc3ccccc3c2)cn1Cc1ccc2ccccc2c1 : 1650 nM

// GI50 value for Cc1ccc(O)c(NC(=O)c2cccc(Nc3ccnc(C(F)(F)F)c3)c2)c1 : 8220 nM

Lab book: GI50 of COc1cc(/C=C2\CC3C4CC=C5C[C@@H](OC(C)=O)CC[C@]5(C)C4CC[C@]3(C)C2=O)ccc1OCCN1CCCCC1 (stereo not given in full) noted as 1660 nM

Lookup result for O=c1c2c(nc3n1CCS3)[nH]c1cc([N+](=O)[O-])ccc12 ; measured GI50: > 100000 nM

// GI50 lookup, compound = O=c1oc2ccc(I)cc2c(=O)n1-c1ccc(Br)cc1F , result: 2420 nM

Looking up COc1cc(/C=C/c2cc(/C=C/c3ccc(O)c(OC)c3)n(C(=O)c3ccc(Cl)cc3)n2)ccc1O , I found its GI50 recorded as 2550 nM

compound COc1ccccc1Nc1cc(O)c2c(=O)cc(-c3ccccc3)oc2c1 , GI50 observed: 5150 nM

// field: GI50; key: O=C(NCCCCN1CCOCC1)c1cc2ccccc2o1 ; value = > 100000 nM

For this compound ( OC(CNc1ccnc2cc(Cl)ccc12)CNc1ccnc2cc(Cl)ccc12 ), measured GI50 is 1810 nM

Data point: Fc1ccc(-c2c(-c3ccncc3)nc3n2CCS3)cc1 ; GI50 = > 25000 nM
